B1: PHTF1 (parent)
chain: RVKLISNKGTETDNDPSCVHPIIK

Variants of: B1
Assay: protein stability index of a GFP-peptide fusion (GPS, HEK-293T) (PSI 1-6); higher = more stable;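 note: lentivirally expressed fusions sorted by FACS into six bins by GFP to DsRed ratio, PSI derived from sequencing read proportions per bin multiplied by bin number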
Conditions: c terminus: a fixed tail appended
Parameter threshold = 4. Response is Satisfied when protein stability index meets or exceeds it, else Not satisfied.

{"Mutation string": "V2N", "Assigned class": "Satisfied"}
{"Mutation string": "I22A", "Assigned class": "Satisfied"}
{"Mutation string": "E11Y", "Assigned class": "Not satisfied"}
{"Mutation string": "E11I", "Assigned class": "Not satisfied"}
{"Mutation string": "E11V", "Assigned class": "Not satisfied"}
{"Mutation string": "I22Y", "Assigned class": "Satisfied"}
{"Mutation string": "I22K", "Assigned class": "Satisfied"}
{"Mutation string": "R1I", "Assigned class": "Not satisfied"}
{"Mutation string": "D15Q", "Assigned class": "Not satisfied"}
{"Mutation string": "S6M", "Assigned class": "Not satisfied"}
{"Mutation string": "V2T", "Assigned class": "Satisfied"}
{"Mutation string": "S6R", "Assigned class": "Not satisfied"}
{"Mutation string": "V19D", "Assigned class": "Satisfied"}
{"Mutation string": "C18W", "Assigned class": "Not satisfied"}
{"Mutation string": "G9S", "Assigned class": "Satisfied"}
{"Mutation string": "P21T", "Assigned class": "Not satisfied"}
{"Mutation string": "C18T", "Assigned class": "Satisfied"}
{"Mutation string": "R1E", "Assigned class": "Satisfied"}
{"Mutation string": "P21M", "Assigned class": "Not satisfied"}
{"Mutation string": "R1F", "Assigned class": "Not satisfied"}
{"Mutation string": "T10C", "Assigned class": "Not satisfied"}
